Label T when melting point is strictly below 100 °C; otherwise label F.

Example entries begin here.
[[record]]
compound = "C#C[C@@]1(OC)CC[C@H]2[C@@H]3CCc4cc(OC)ccc4[C@H]3CC[C@@]21C"
category = "F"

[[record]]
compound = "COc1ccc(-c2nnc3n2NC(c2ccc(OC)cc2)S3)cc1 (stereo not drawn)"
category = "F"

[[record]]
compound = "CCOC(=O)NC1C2CCC(C)(C1O)C2(C)C (stereo not drawn)"
category = "T"

[[record]]
compound = "O=[N+]([O-])C(Br)C(Br)c1cccc(C(Br)C(Br)[N+](=O)[O-])c1 (stereo not drawn)"
category = "F"


Here's an entry: COc1cc(OC)nc(NC(=O)NS(=O)(=O)c2c(-c3nnn(C)n3)cnn2C)n1 . Is its melting point below 100 °C?
F

Here's an entry: O=[N+]([O-])c1ccc(O)cc1C(F)(F)F . Is its melting point below 100 °C?
T

---

Recorded melting point for the following compounds

Recorded melting point, per entry:
[[record]]
compound = "OCc1ccc(-c2cc(C(F)(F)F)cc(C(F)(F)F)c2)o1"
observation_type = "melting point"
result = "110 to 113 °C"

[[record]]
compound = "Nc1ncnc2c1ncn2C1OC(CI)C(O)C1O (stereo not drawn)"
observation_type = "melting point"
result = "178 to 187 °C"


# next compound below
Using the record for O=C(NC1CCCCC1)C(C(F)(F)F)C(F)(F)F , report its melting point.
190 to 192 °C

---

Recorded melting point for the following molecules
Numeric only. Scale: °C

Recorded melting point, per entry:
[[record]]
molecule = "CC(=O)CCc1oc2ccc(Br)cc2c1-c1ccc(C)o1"
observation_type = "melting point"
result = 79

[[record]]
molecule = "N#Cc1cc(F)c(F)cc1Cl"
observation_type = "melting point"
result = 35

[[record]]
molecule = "CC(=O)OC(OC(C)=O)c1cccc([N+](=O)[O-])c1"
observation_type = "melting point"
result = 72


Using the record for CCCCCCCCCCCCCCCCCC(CC)c1ccccc1 (stereo not drawn) , report its melting point.
29.3

Using the record for COc1ccc2c(c1O)-c1cccc3c1C(C2)N(C)CC3 (stereo not drawn) , report its melting point.
124

Using the record for Nc1cc2ccccc2cc1N , report its melting point.
199

Using the record for Nc1ccccc1-c1c(-c2ccccc2)noc1-c1ccccc1 , report its melting point.
185

Using the record for COc1ccc(-c2occ(C(=O)c3ccccc3)c2S(=O)(=O)c2ccccc2)cc1 , report its melting point.
110

Using the record for Nc1ccc(Cl)c(C(=O)O)c1 , report its melting point.
188

---

Recorded melting point for the following compounds

Recorded melting point, per entry:
[[record]]
compound = "CC(=O)c1c(-c2ccccc2)noc1C"
result = "55 to 58 °C"

[[record]]
compound = "c1ccc(-c2ccc(-c3nc4ccc(-c5ccccc5)cc4o3)cc2)cc1"
result = "199 to 201 °C"

[[record]]
compound = "Cc1cc(C(=O)O)ccc1Cl"
result = "216 to 218 °C"


Using the record for C#CC(O)(c1ccccc1)c1ccccc1 , report its melting point.
47 to 48 °C

Using the record for BrCc1ccc(-c2cccs2)cc1 , report its melting point.
83 to 84 °C

Using the record for Cc1cc(Cl)cc(Cl)c1S(N)(=O)=O , report its melting point.
168 to 170 °C

---

Recorded melting point for the following compounds

[[record]]
compound = "O=C1OC(=O)C23Cc4ccccc4CC12Cc1ccccc1C3 (centres undefined)"
result = "267 to 270 °C"

[[record]]
compound = "Nc1cnccc1C(=O)O"
result = "287 to 291 °C"

[[record]]
compound = "O=C(Oc1c(F)c(F)c(F)c(F)c1F)C1CCN(c2ncnc3ccsc23)CC1"
result = "99 to 104 °C"

[[record]]
compound = "Oc1nn(-c2ccc(Br)cc2)cc1Br"
result = "199 to 201 °C"

[[record]]
compound = "Cc1ccc2ncccc2c1[N+](=O)[O-]"
result = "118 to 120 °C"


Using the record for COC(=O)[C@H]1OC(c2ccc(OC)c(OC)c2)([C@@H](C)Br)O[C@@H]1C(=O)OC , report its melting point.
97.3 °C

Using the record for CC(=O)OC[C@H]1O[C@@H](OCc2ccccc2)[C@H](OC(C)=O)[C@@H](OC(C)=O)[C@@H]1OC(C)=O , report its melting point.
96 to 100 °C

Using the record for O=C1C2C3C=CC(C3)C2C(=O)N1O (centres undefined) , report its melting point.
167 to 170 °C

Using the record for O=C1C=CC(=O)N1c1cccc(N2C(=O)C=CC2=O)c1 , report its melting point.
198 to 204 °C

Using the record for CC1=NN(c2ccc(Cl)cc2Cl)C(=O)C1C(Cl)C1(Cl)C(=O)N(c2ccc(Cl)cc2Cl)N=C1C (centres undefined) , report its melting point.
110 to 120 °C

Using the record for O=C(O)c1cccc2c1-c1ccc(I)cc1C2 , report its melting point.
265 to 267 °C

Using the record for Cc1cc(C(=O)NN)[nH]n1 , report its melting point.
157 to 158 °C

Using the record for Cc1cc(C(=O)Cl)nn1C , report its melting point.
73 to 74 °C

Using the record for O=Cc1ccc(Oc2ccccn2)cc1 , report its melting point.
45 to 46 °C

Using the record for CC(C)(NO)C(=NO)c1ccccc1 , report its melting point.
153 to 154 °C

Using the record for CC1=NN(c2ccc([N+](=O)[O-])cc2)C(=O)C1 , report its melting point.
220 to 225 °C

Using the record for O=Cc1cccc(-c2cncnc2)c1 , report its melting point.
148 to 149 °C

Using the record for COC(=O)C=P(c1ccccc1)(c1ccccc1)c1ccccc1 , report its melting point.
164 to 169 °C

Using the record for CC(=O)c1cccc(N=C=O)c1 , report its melting point.
33 to 34 °C

---

Recorded melting point for the following compounds

[[record]]
compound = "Cc1cc2oc(-c3ccccc3)cc(=O)c2cc1Cl"
result = "174 to 178 °C"

[[record]]
compound = "Nc1cc(Br)cnc1N"
result = "160 to 165 °C"


Using the record for COC1=CC(=O)C(C#N)C(c2ccccc2)C1 (centres undefined) , report its melting point.
167 °C

Using the record for COC(=O)c1sccc1Oc1ccc(C(F)(F)F)cc1[N+](=O)[O-] , report its melting point.
112 to 113 °C

Using the record for O=Cc1c(Cl)[nH]n(-c2ccccc2)c1=O , report its melting point.
167 °C

Using the record for CC(C)(C)OC(=O)N1CCN(CCO)CC1 , report its melting point.
39 to 43 °C

Using the record for C=C(F)C(=O)O , report its melting point.
51.5 to 52 °C

---

observation.type: melting point

Recorded melting point, per entry:
[[record]]
molecule = "CCCCCCCCCCCCSCCCCCCCCCCCC"
observation_type = "melting point"
result = "36 to 43 °C"

[[record]]
molecule = "COc1cccc(N2C(=O)C=CC2=O)c1"
observation_type = "melting point"
result = "62 to 66 °C"

[[record]]
molecule = "CCOc1nc2ccccc2c(=O)n1Cc1cccnc1"
observation_type = "melting point"
result = "67 to 70 °C"


Using the record for CCC(=O)N1C(=O)OC[C@@H]1Cc1ccccc1 , report its melting point.
42 to 44 °C

---

observation.type: melting point

Using the record for OCc1ccc2ncccc2c1 , report its melting point.
79 to 80 °C

Using the record for O=C(O)c1cccc(-c2cncnc2)c1 , report its melting point.
244 to 245 °C

Using the record for CCC(C)C(NC(=O)OCC1c2ccccc2-c2ccccc21)C(=O)O (stereo not given) , report its melting point.
146 to 149 °C

Using the record for CCNC(=S)NN , report its melting point.
80 to 85 °C

Using the record for NC(=O)OCC(O)c1ccccc1 (stereo not given) , report its melting point.
112 °C

Using the record for CC(CCl)(CCl)C(=O)O , report its melting point.
64 to 66 °C

Using the record for Cc1ccccc1-n1ncc(C(=O)O)c1C , report its melting point.
142 to 147 °C

Using the record for O=CC(Br)(Br)Br , report its melting point.
-57.5 °C

Using the record for CC(=C\OC(=O)c1ccccc1)/C(C)=N/OC(=O)c1ccccc1 , report its melting point.
231 to 232 °C

---

Recorded melting point for the following compounds

Recorded melting point, per entry:
[[record]]
compound = "CCOC(=O)c1c(Cl)cc(C)nc1Cl"
observation_type = "melting point"
result = "53 to 57 °C"

[[record]]
compound = "Cc1cc(O)c([N+](=O)[O-])c(=O)[nH]1"
observation_type = "melting point"
result = "293 to 296 °C"

[[record]]
compound = "CC1=CS(=O)(=O)c2ccc(Cl)cc21"
observation_type = "melting point"
result = "168 to 172 °C"

[[record]]
compound = "CCOC(=O)CSc1nc(C)n[nH]1"
observation_type = "melting point"
result = "99 to 101 °C"

[[record]]
compound = "CCCCOc1ccc(/C=N/NC(=O)C(=O)N/N=C/c2ccc(OCCCC)cc2)cc1"
observation_type = "melting point"
result = "301 to 303 °C"

[[record]]
compound = "CC1CC(=O)C(=O)C1C (configuration not stated)"
observation_type = "melting point"
result = "64 to 69 °C"


Using the record for COC(=O)c1cc(S(=O)(=O)Cl)oc1C , report its melting point.
35 to 38 °C

Source: a melting point compilation (Tetko et al.)
